Target: T1, human CD1a expressed on cells (human, UniProt P06126 17-327; P61769 21-119)
T1 construct: also called HEK - CD1a; C1R - CD1a
Assay: flow cytometry, C1R cells, 10 µg/ml antibody
PARAMETER: Fluorescence Intensity Geomean (normalized to background) (fold over background)

[[record]]
binder = "16 (VR11834) (antibody, V domains shown, also called OX16; antibody 16) VH: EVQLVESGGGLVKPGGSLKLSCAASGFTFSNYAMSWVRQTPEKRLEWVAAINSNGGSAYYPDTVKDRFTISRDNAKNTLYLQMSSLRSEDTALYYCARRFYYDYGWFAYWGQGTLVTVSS VL: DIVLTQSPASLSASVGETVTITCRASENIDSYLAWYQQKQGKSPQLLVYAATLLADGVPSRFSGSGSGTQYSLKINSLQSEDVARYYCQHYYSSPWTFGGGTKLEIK"
result_unit = "fold over background"
numeric_result = 7

